Please go through the items and note down their activity.
Molecular target: Tumor necrosis factor receptor superfamily member 10B (Homo sapiens) (UniProt O14763)
Sequence (O14763 whole entry, looked up): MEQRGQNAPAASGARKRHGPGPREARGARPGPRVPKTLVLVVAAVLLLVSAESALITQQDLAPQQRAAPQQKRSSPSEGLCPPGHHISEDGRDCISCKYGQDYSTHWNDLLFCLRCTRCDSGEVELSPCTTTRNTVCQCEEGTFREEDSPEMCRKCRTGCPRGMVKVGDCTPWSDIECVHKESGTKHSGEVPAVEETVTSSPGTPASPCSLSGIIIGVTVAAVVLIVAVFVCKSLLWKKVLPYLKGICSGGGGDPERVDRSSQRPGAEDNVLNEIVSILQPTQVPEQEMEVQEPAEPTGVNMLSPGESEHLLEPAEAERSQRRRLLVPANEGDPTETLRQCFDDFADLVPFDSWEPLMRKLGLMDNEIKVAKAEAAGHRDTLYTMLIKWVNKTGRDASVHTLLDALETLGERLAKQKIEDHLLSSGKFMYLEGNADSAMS
Test: caspase-8 TRAIL sensitization, hit retest, confirmation, cell-based, NB7+caspase-8, with/without TRAIL, luminescence panel (AID 651596)
Conditions: NB7 neuroblastoma + caspase-8, TRAIL sensitization, luminescence viability, with TRAIL, mean of runs, at 10 µM, stronger effect = higher value
Express the result in % but write the number alone.

## Input What measured activity goes with CN(C(=O)c1ccco1)c1nc2c(s1)CCCC2 ?
## Output 58.4

## Input Record request: activity value, item Cc1ccc(CNc2nc3ccccc3n2C)cc1
## Output 59.8

## Input # query: activity of entry C=CCn1c2ccccc2c(=O)c2cc(C#CC3(O)CCCCC3)ccc21
## Output 83.7

## Input For the compound shown here, CC(C)C(=O)Nc1ccc2nn(-c3ccccc3)nc2c1 , give the reported activity.
## Output 52.4

## Input Which activity is listed for COc1ccc(C2c3ccc4ccccc4c3Oc3ncn(CCCN(C)C)c(=N)c32)cc1 (stereo unspecified) ?
## Output 24.2

## Input Quick check: activity of COC(=O)c1c(NC(=O)c2nc3ccccc3s2)sc2c1CC(C)(C)NC2(C)C ?
## Output 87.8

## Input Which activity is listed for COc1cccc(N2C(N)=NC(N)=NC2(C)C)c1 ?
## Output 79.7

## Input What value of activity has been recorded for this entry: CCOc1ccc(-n2c(SCC(N)=O)nc3c([nH]c4ccccc43)c2=O)cc1
## Output 59.4

## Input Value lookup for activity; key = CCN(Cc1ccccc1)S(=O)(=O)c1ccc(C(=O)N(CCCN(C)C)c2nc3cc(C)cc(C)c3s2)cc1
## Output 23.3

## Input Entry COc1cccc(NC(=O)c2nc(S(C)(=O)=O)ncc2Cl)c1 has what activity?
## Output 13.1

## Input Return reported activity; argument: COc1ccccc1NC(=O)c1nc(S(=O)(=O)Cc2ccccc2)ncc1Cl
## Output 90.7

## Input Sample COc1ccc(CC(N)c2csc(NC(=O)Nc3cccc(C(F)(F)F)c3)n2)cc1 (stereo unspecified) — what was its activity?
## Output 39.6

## Input Given CN(C)S(=O)(=O)c1ccc(-c2csc(N/N=C/c3ccco3)n2)cc1 , state its recorded activity.
## Output 81

## Input Give the measured activity of CCn1cc(-c2cc(C(=O)O)c3ccccc3n2)cn1 .
## Output 65

## Input Consider the compound Nc1nc(N)c2cc(Sc3ccc4ccccc4c3)ccc2n1 and give its measured activity.
## Output 61

## Input # query: activity of entry O=C1c2ccccc2NC(c2ccc3c(c2)OCCO3)N1c1ccc2c(c1)OCCO2 (stereo unspecified)
## Output 44.2
